Reported solubility values for a set of compounds
- experiment.description: Solubility in distilled water
- Format: physicochemical
- settings: distilled water, water, Solubility, 70° C.
- Source text: Sugar: Refined sugar (prime grade) Palatinose: Crystalline palatinose
A number alone suffices; assume mg/mL.

GET /value?item= OC[C@H]1O[C@H](OC[C@H]2OC(O)(CO)[C@@H](O)[C@@H]2O)[C@H](O)[C@@H](O)[C@@H]1O (some centres unmarked) &field=solubility returns 580

Read the next record carefully.
GET /value?item= "OC[C@H]1O[C@@](CO)(O[C@H]2O[C@H](CO)[C@@H](O)[C@H](O)[C@H]2O)[C@@H](O)[C@@H]1O" &field=solubility returns 740
